- Tested on: proteins that co-immunoprecipitated with DUX4-CTD constructs expressed in MB135 myoblasts
- Test Method Notes: LC-MS of proteins co-immunoprecipitated with DUX4-CTD (Table 1) and western validation
- Assay type: binding, human
- Design: key: peptide-spectrum matches (PSMs) per protein
- Assay Conditions: LC-MS value per protein co-immunoprecipitated from MB135 myoblasts; + IFNG mix sample (no Dox); kind of count not given
4. + IFNG mix listing for selected molecules.
I'd appreciate a reply containing only the number, no unit.

Give the reported 4. + IFNG mix for this molecule. MYL12A (protein) MDLTTTMSSKRTKTKTKKRPQRATSNVFAMFDQSQIQEFKEAFNMIDQNRDGFIDKEDLHDMLASLGKNPTDEYLDAMMNEAPGPINFTMFLTMFGEKLNGTDPEDVIRNAFACFDEEATGTIQEDYLRELLTTMGDRFTDEEVDELYREAPIDKKGNFNYIEFTRILKHGAKDKDD
9

Give the reported 4. + IFNG mix for this molecule. SERPINB3 (protein) MNSLSEANTKFMFDLFQQFRKSKENNIFYSPISITSALGMVLLGAKDNTAQQIKKVLHFDQVTENTTGKAATYHVDRSGNVHHQFQKLLTEFNKSTDAYELKIANKLFGEKTYLFLQEYLDAIKKFYQTSVESVDFANAPEESRKKINSWVESQTNEKIKNLIPEGNIGSNTTLVLVNAIYFKGQWEKKFNKEDTKEEKFWPNKNTYKSIQMMRQYTSFHFASLEDVQAKVLEIPYKGKDLSMIVLLPNEIDGLQKLEEKLTAEKLMEWTSLQNMRETRVDLHLPRFKVEESYDLKDTLRTMGMVDIFNGDADLSGMTGSRGLVLSGVLHKAFVEVTEEGAEAAAATAVVGFGSSPTSTNEEFHCNHPFLFFIRQNKTNSILFYGRFSSP
2

Give the reported 4. + IFNG mix for this molecule. SLC25A3 (protein) AVEEQYSCDYGSGRFFILCGLGGIISCGTTHTALVPLDLVKCRMQVDPQKYKGIFNGFSVTLKEDGVRGLAKGWAPTFLGYSMQGLCKFGFYEVFKVLYSNMLGEENTYLWRTSLYLAASASAEFFADIALAPMEAAKVRIQTQPGYANTLRDAAPKMYKEEGLKAFYKGVAPLWMRQIPYTMMKFACFERTVEALYKFVVPKPRSECSKPEQLVVTFVAGYIAGVFCAIVSHPADSVVSVLNKEKGSSASLVLKRLGFKGVWKGLFARIIMIGTLTALQWFIYDSVKVYFRLPRPPPPEMPESLKKKLGLTQ
3

Others:
Give the reported 4. + IFNG mix for this molecule. IGKV2-40 (protein, UniProt A0A087WW87 20-121, looked up) Immunoglobulin kappa variable …: EDIVMTQTPLSLPVTPGEPASISCRSSQSLLDSDDGNTYLDWYLQKPGQSPQLLIYTLSYRASGVPDRFSGSGSGTDFTLKISRVEAEDVGVYYCMQRIEFP
5

Give the reported 4. + IFNG mix for this molecule. CAVIN1 (protein) MEDPTLYIVERPLPGYPDAEAPEPSSAGAQAAEEPSGAGSEELIKSDQVNGVLVLSLLDKIIGAVDQIQLTQAQLEERQAEMEGAVQSIQGELSKLGKAHATTSNTVSKLLEKVRKVSVNVKTVRGSLERQAGQIKKLEVNEAELLRRRNFKVMIYQDEVKLPAKLSISKSLKESEALPEKEGEELGEGERPEEDAAALELSSDEAVEVEEVIEESRAERIKRSGLRRVDDFKKAFSKEKMEKTKVRTRENLEKTRLKTKENLEKTRHTLEKRMNKLGTRLVPAERREKLKTSRDKLRKSFTPDHVVYARSKTAVYKVPPFTFHVKKIREGQVEVLKATEMVEVGADDDEGGAERGEAGDLRRGSSPDVHALLEITEESDAVLVDKSDSD
7

Recorded values, source patent US20250339531A1.
